I'd appreciate it if you could supply pEC50 values for the items below.
# Tested on: Hepatitis C virus
# assay: Antiviral activity against Hepatitis C virus genotype 1b expressing NS3/4A protease R155K mutant infected in HuH7 cells
# Format: functional, organism-based, Hepacivirus hominis
# assaySetup: Huh-7
Recall that pEC50 is obtained by taking minus log10 of the concentration measured in molar.

**Q:** Record request: pEC50 value, item COc1ccc2c(O[C@@H]3C[C@H]4C(=O)N[C@]5(C(=O)NS(=O)(=O)C6CC6)C[C@H]5/C=C\CCCCCC(O)C(=O)N4C3)cc(-c3nc(C(C)C)cs3)nc2c1C (stereo partly specified)
**A:** 7.22

**Q:** Same again, this time with CC(C)(C)OC(=O)N[C@H]1CCCCC/C=C\[C@@H]2C[C@@]2(C(=O)NS(=O)(=O)C2CC2)NC(=O)[C@@H]2C[C@@H](OC(=O)N3Cc4cccc(F)c4C3)CN2C1=O [DANOPREVIR]
**A:** 7.09

**Q:** Same again, this time with COc1ccc2c(O[C@@H]3C[C@H]4C(=O)N[C@]5(C(=O)NS(=O)(=O)C6CC6)C[C@H]5/C=C\CCCCCC(OC(=O)N5CCCCC5)C(=O)N4C3)cc(-c3nc(C(C)C)cs3)nc2c1C (stereo partly specified)
**A:** 5.83

**Q:** Same again, this time with COc1ccc2c(O[C@@H]3C[C@H]4C(=O)N[C@]5(C(=O)NS(=O)(=O)C6CC6)C[C@H]5/C=C\CCCCCC(OC(=O)NC(C)(C)C)C(=O)N4C3)cc(-c3nc(C(C)C)cs3)nc2c1C (stereo partly specified)
**A:** 6.49

**Q:** Same again, this time with CCOC1CCCCC/C=C\[C@@H]2C[C@@]2(C(=O)NS(=O)(=O)C2CC2)NC(=O)[C@@H]2C[C@@H](Oc3cc(-c4nc(C(C)C)cs4)nc4c(C)c(OC)ccc34)CN2C1=O (stereo partly specified)
**A:** 5.40

**Q:** Same again, this time with COc1ccc2c(O[C@@H]3C[C@H]4C(=O)N[C@]5(C(=O)NS(=O)(=O)C6CC6)C[C@H]5/C=C\CCCCCC(OC(=O)n5ccnc5)C(=O)N4C3)cc(-c3nc(C(C)C)cs3)nc2c1C (stereo partly specified)
**A:** 7.32
